These measurements were taken from ChEMBL document CHEMBL5335811.

- TARGET: 5-hydroxytryptamine receptor 2A (Homo sapiens)
- EXPERIMENT SUMMARY: Agonist activity at N-terminal HA-tagged human 5HT2A receptor
- Type: functional
Known EC50 of a selection of molecules

>>> df
                      structure_smiles                                    target  metric  value_measured
0  NC[C@@H]1C[C@@H]1c1cc(O)ccc1OCC1CC1  5-hydroxytryptamine receptor 2A (Homo sapiens)    EC50          372 nM

Then there is this molecule:
# lookup: EC50 of NC[C@@H]1C[C@@H]1c1cc(F)ccc1OCC1CC1
894 nM

----------
- TARGET: UniProt:P49286
- Sequence (P49286 whole entry): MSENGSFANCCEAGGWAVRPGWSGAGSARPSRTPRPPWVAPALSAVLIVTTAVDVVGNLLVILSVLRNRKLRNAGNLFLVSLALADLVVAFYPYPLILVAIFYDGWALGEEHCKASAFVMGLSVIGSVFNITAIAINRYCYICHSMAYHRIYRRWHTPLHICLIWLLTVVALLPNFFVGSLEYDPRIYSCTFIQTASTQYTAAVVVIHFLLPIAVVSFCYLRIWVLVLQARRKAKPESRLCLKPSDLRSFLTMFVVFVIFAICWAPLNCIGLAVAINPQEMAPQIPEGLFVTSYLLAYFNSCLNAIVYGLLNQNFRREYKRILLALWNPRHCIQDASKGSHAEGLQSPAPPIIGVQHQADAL
METRIC: pKi
Keep it numeric: pKi is minus log10 of the concentration in mol/L.

# lookup: pKi of CCC(=O)NC[C@@H]1C[C@H]1c1cccc2c1CCO2
10.15

----------
- TARGET: Sigma intracellular receptor 2 (Homo sapiens, UniProt Q5BJF2)
- Sequence (Q5BJF2 whole entry): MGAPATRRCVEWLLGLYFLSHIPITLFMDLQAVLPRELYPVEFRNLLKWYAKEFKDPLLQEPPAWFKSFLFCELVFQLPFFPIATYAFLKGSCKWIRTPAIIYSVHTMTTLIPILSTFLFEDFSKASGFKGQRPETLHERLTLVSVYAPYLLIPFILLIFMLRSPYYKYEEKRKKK
- EXPERIMENT SUMMARY: Binding affinity to sigma 2 receptor (unknown origin) assessed as inhibition constant
METRIC: Ki

# lookup: Ki of COC(=O)[C@]1(c2ccccc2)C[C@@H]1CN1CCC(O)(c2ccc(Cl)cc2)CC1
21.9 nM

----------
- TARGET: 5-hydroxytryptamine receptor 2A (Homo sapiens, UniProt P28223)
- Sequence (P28223 whole entry): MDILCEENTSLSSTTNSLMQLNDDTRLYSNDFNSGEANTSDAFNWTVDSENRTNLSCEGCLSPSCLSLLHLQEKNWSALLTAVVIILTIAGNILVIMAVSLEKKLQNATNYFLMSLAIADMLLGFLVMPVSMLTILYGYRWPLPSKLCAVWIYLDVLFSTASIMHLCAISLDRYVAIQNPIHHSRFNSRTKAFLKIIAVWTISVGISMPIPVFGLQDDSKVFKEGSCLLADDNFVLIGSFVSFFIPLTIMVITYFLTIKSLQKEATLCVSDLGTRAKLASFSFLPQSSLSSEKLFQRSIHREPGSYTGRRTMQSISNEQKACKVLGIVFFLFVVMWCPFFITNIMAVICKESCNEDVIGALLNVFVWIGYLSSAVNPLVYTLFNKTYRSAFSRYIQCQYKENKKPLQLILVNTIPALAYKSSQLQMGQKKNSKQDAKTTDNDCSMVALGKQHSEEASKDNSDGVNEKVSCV
- EXPERIMENT SUMMARY: Agonist activity at human 5HT2A receptor
- Format: functional
METRIC: EC50 (µM)
The reply should contain only the number, in µM.

# lookup: EC50 of CC1(C)Cc2cc(Cl)cc([C@H]3C[C@H]3CN)c2O1
0.6

----------
- EXPERIMENT SUMMARY: Terminal elimination half life in Sprague-Dawley rat at 12 mg/kg, po
- Assay type: ADME, organism-based
- EXPERIMENTAL CONTEXT: in vivo, read-out: beta t1/2 (converted)
METRIC: half-life (h)
The reply should contain only the number, in h.

# lookup: half-life of CCN(CC)C(=O)[C@@]1(c2ccccc2)C[C@H]1CN
12
